I'd appreciate it if you could supply pIC50 values for the items below.
# measured.target: TrkA-G667C (Homo sapiens, UniProt P04629, G667C)
# Sequence (P04629 33-796 G667C): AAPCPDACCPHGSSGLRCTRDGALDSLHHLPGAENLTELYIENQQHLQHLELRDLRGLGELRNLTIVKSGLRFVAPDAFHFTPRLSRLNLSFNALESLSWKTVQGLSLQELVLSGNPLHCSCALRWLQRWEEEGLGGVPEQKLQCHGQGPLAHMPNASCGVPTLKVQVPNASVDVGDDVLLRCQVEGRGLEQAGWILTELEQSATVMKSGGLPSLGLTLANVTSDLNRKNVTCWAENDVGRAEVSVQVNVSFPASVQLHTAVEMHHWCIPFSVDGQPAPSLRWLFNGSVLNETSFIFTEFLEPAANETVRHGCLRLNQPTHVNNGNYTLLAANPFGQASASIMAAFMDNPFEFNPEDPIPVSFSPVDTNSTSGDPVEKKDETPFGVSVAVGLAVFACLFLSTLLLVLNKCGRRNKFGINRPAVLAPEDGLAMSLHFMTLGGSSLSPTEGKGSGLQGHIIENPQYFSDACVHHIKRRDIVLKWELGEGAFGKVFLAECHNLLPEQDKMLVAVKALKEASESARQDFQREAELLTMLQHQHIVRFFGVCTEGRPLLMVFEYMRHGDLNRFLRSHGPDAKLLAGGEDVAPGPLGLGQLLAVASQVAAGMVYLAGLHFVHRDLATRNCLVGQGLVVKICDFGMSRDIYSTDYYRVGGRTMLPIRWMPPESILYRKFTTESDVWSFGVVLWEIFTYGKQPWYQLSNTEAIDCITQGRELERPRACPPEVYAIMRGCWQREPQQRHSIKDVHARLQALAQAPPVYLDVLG
# experimental.protocol: Kinase inhibitory activity (33P-ATP filter binding, Reaction Biology Corp.)
# particulars: read-out: The half maximal inhibitory concentration IC50 on the kinases, TrkA-G667C
// pIC50 is dimensionless: -log10 of concentration (M)

Query: Notebook entry, TrkA-G667C (Homo sapiens, UniProt P04629, G667C) assay: pIC50 of C[C@@H]1COc2ccc(F)cc2[C@H]2CCON2c2ccn3ncc(c3n2)C(=O)N1 [WX017A] = ?
Result: 7.58

Query: Request: O=C1N[C@@H]2CCC[C@@H]2Oc2ncc(F)cc2[C@H]2CCON2c2ccn3ncc1c3n2 [WX007A]
Result: 8.55

Query: Request: O=C1NC2(CC2)COc2ccc(F)cc2[C@H]2CCON2c2ccn3ncc1c3n2 (single isomer, unassigned) [WX003A]
Result: 8.52

Query: Request: C[C@H]1CNC(=O)c2cnn3ccc(nc23)N2OCC[C@@H]2c2cc(F)cnc2O1 [WX005B]
Result: 7.58
